Numbers sourced from patent US20230075584A1.

# assay procedure: Pharmacokinetics of i.p. versus i.n. administered 2-PMPA in rat plasma and brain tissues
# Type: in vivo
# particulars: male, Wistar, rat, brain, other: intranasal, 30 mg/kg, intranasal versus other route; read-out: improvement in the brain-to-plasma ratio when administered through an intranasal route
result type: fold improvement in brain-to-plasma ratio, intranasal versus intraperitoneal

Reported fold improvement in brain-to-plasma ratio, intranasal versus intraperitoneal, molecule O=C(O)CCC(CP(=O)(O)O)C(=O)O (racemic) : ____
100

###

# assay procedure: Pharmacokinetics of i.p. versus i.n. administered 2-PMPA in rat plasma and brain tissues
# Assay type: in vivo
# particulars: male, Wistar, cortex, other: intranasal, 30 mg/kg, 30 mg/kg i.n., read-out: brain tissue to plasma ratio based on AUCs, cortex
result type: Kp
Form field (numeric): enter value without unit.

Quick one: Kp for O=C(O)CCC(CP(=O)(O)O)C(=O)O (racemic) [2-PMPA, 2-(phosphonomethyl)-pentanedioic acid] ?
0.71

###

# assay procedure: Brain concentrations 1 h after intranasal administration in rats (single time point)
# Type: in vivo
# particulars: male, Wistar, rat, in vivo, 30 mg/kg, 30 mg/kg i.n., 1 hr post dose, read-out: concentration in cerebellum
result type: concentration at 1 h (ng/g)
Give the number; ng/g is assumed, so skip it.

Quick one: concentration at 1 h of O=C(O)CCC(CP(=O)(O)O)C(=O)O (racemic) ?
2130

###

# assay procedure: Pharmacokinetics of i.p. versus i.n. administered 2-PMPA in rat plasma and brain tissues
# Assay type: in vivo
# particulars: male, Wistar, olfactory bulb, other: intranasal, 30 mg/kg, 30 mg/kg i.n., read-out: brain tissue to plasma ratio based on AUCs, olfactory bulb
result type: Kp
Hey, just send me the number, nothing else.

Recorded Kp for O=C(O)CCC(CP(=O)(O)O)C(=O)O (racemic) , please?
1.49

###

# assay procedure: Brain concentrations 1 h after intranasal administration in rats (single time point)
# Format: in vivo
# particulars: male, Wistar, rat, in vivo, 30 mg/kg, 30 mg/kg i.n., 1 hr post dose, read-out: concentration in olfactory bulb
result type: concentration at 1 h (ng/g)
Quick note: give the figure in ng/g, leave out the unit.

GET /values?readout=concentration at 1 h&item= O=C(O)CCC(CP(=O)(O)O)C(=O)O (racemic) [2-PMPA, 2-(phosphonomethyl)-pentanedioic acid]
31200
